B1: TPR 5TU (parent)
chain: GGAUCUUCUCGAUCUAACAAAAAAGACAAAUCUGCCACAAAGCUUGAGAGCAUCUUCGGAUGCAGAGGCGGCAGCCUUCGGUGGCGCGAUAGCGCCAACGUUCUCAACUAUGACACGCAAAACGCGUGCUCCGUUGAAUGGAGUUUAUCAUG

Variants of: B1
run.description: polymerase ribozyme fitness, log enrichment relative to wild type (log ratio); higher = more active; in vitro selection for triplet polymerase activity
This sample holds only a part of the variants without activity.
readout.type: polymerase ribozyme fitness (log ratio)

## Task Field request: polymerase ribozyme fitness (log ratio) | item: C5G U6G U7G C14G A28C A30C G50C C51G A89G C93G G94U C105U C118A G133A
## Result ≤ -4.2

## Task Field request: polymerase ribozyme fitness (log ratio) | item: G48A C57A C125U
## Result -1.74

## Task Field request: polymerase ribozyme fitness (log ratio) | item: U13G A29U C93U C129G
## Result ≤ -4.2

## Task Field request: polymerase ribozyme fitness (log ratio) | item: C35G G68A A91U U144C
## Result ≤ -4.2

## Task Field request: polymerase ribozyme fitness (log ratio) | item: A21G A138C
## Result -4

## Task Field request: polymerase ribozyme fitness (log ratio) | item: A91C A120G G126A
## Result ≤ -4.2

## Task Field request: polymerase ribozyme fitness (log ratio) | item: G50A C93U
## Result -3.07

## Task Field request: polymerase ribozyme fitness (log ratio) | item: G58U G88C U130G
## Result ≤ -4.2

## Task Field request: polymerase ribozyme fitness (log ratio) | item: A49C C75G G83U G141A U146A
## Result ≤ -4.2

## Task Field request: polymerase ribozyme fitness (log ratio) | item: A26U A49G C95U
## Result -3.28

## Task Field request: polymerase ribozyme fitness (log ratio) | item: A29C G74C
## Result ≤ -4.2

## Task Field request: polymerase ribozyme fitness (log ratio) | item: C8G A24G U33G G59A G71A G74A U144C
## Result ≤ -4.2

## Task Field request: polymerase ribozyme fitness (log ratio) | item: C8A C14U A21C U53A G83A A150C
## Result ≤ -4.2

## Task Field request: polymerase ribozyme fitness (log ratio) | item: U45A C63U A121C
## Result -3.18

## Task Field request: polymerase ribozyme fitness (log ratio) | item: G25C A150C
## Result -3.47

## Task Field request: polymerase ribozyme fitness (log ratio) | item: A12G U45A A52U U55A C79G G81A A98G
## Result ≤ -4.2

## Task Field request: polymerase ribozyme fitness (log ratio) | item: A19G A20G A60G C76A A89U C93A
## Result ≤ -4.2

## Task Field request: polymerase ribozyme fitness (log ratio) | item: A12U U31G A40C A49C A60G C93U
## Result ≤ -4.2

## Task Field request: polymerase ribozyme fitness (log ratio) | item: C5A C85U C93U
## Result -1.66

## Task Field request: polymerase ribozyme fitness (log ratio) | item: C38U G92U C95G A106U
## Result ≤ -4.2

## Task Field request: polymerase ribozyme fitness (log ratio) | item: U7A C35A C87A C93A
## Result ≤ -4.2

## Task Field request: polymerase ribozyme fitness (log ratio) | item: A40C G46A A91G U104G A119G U148G
## Result ≤ -4.2

## Task Field request: polymerase ribozyme fitness (log ratio) | item: U45A U55A C93U
## Result -3.88

## Task Field request: polymerase ribozyme fitness (log ratio) | item: C5A A41C C54U C85A C103A G117A G133C A137U
## Result ≤ -4.2

## Task Field request: polymerase ribozyme fitness (log ratio) | item: A97U C125A
## Result -0.436

## Task Field request: polymerase ribozyme fitness (log ratio) | item: G59C G80A C93A
## Result -3.86

## Task Field request: polymerase ribozyme fitness (log ratio) | item: A23G C85U C95U G133U
## Result -4

## Task Field request: polymerase ribozyme fitness (log ratio) | item: G80U C85A
## Result -2.27

## Task Field request: polymerase ribozyme fitness (log ratio) | item: A23G C38G C95U C114G
## Result -3.85

## Task Field request: polymerase ribozyme fitness (log ratio) | item: G84A G100C
## Result ≤ -4.2

## Task Field request: polymerase ribozyme fitness (log ratio) | item: C10G A29U C95U C108A G117A G143C
## Result ≤ -4.2

## Task Field request: polymerase ribozyme fitness (log ratio) | item: A20U U55A C85A
## Result -3.29

## Task Field request: polymerase ribozyme fitness (log ratio) | item: U6G C8G A47C G59U A91C C96G C132G G133A
## Result ≤ -4.2

## Task Field request: polymerase ribozyme fitness (log ratio) | item: U109G G133C
## Result -2

## Task Field request: polymerase ribozyme fitness (log ratio) | item: A23G U33G G100C U148C
## Result ≤ -4.2

## Task Field request: polymerase ribozyme fitness (log ratio) | item: C57A C69G A91U A119G G128A G140C U145G
## Result ≤ -4.2

## Task Field request: polymerase ribozyme fitness (log ratio) | item: A52C U56C C57A G67A C85U A97U U146G U151G
## Result ≤ -4.2

## Task Field request: polymerase ribozyme fitness (log ratio) | item: C18G A37G A66G G68C C93A G128A
## Result ≤ -4.2

## Task Field request: polymerase ribozyme fitness (log ratio) | item: A21U A30G C57U A91U U104A G126A
## Result ≤ -4.2

## Task Field request: polymerase ribozyme fitness (log ratio) | item: C35U A41G C96A U144A
## Result -0.485

## Task Field request: polymerase ribozyme fitness (log ratio) | item: A23C C75G C103U
## Result ≤ -4.2

## Task Field request: polymerase ribozyme fitness (log ratio) | item: A91U A113C
## Result ≤ -4.2

## Task Field request: polymerase ribozyme fitness (log ratio) | item: A26U A49G C93U G124C U135G A138G
## Result ≤ -4.2

## Task Field request: polymerase ribozyme fitness (log ratio) | item: G46C C105G
## Result 1.29

## Task Field request: polymerase ribozyme fitness (log ratio) | item: C96G A119U
## Result -2.52

## Task Field request: polymerase ribozyme fitness (log ratio) | item: U53A G62A G86U
## Result -2.24
